Biological target: IKZF2 (Homo sapiens, UniProt Q96SW2+Q9UKS7)
Sequence (Q9UKS7 1-500 isoform Q9UKS7-2): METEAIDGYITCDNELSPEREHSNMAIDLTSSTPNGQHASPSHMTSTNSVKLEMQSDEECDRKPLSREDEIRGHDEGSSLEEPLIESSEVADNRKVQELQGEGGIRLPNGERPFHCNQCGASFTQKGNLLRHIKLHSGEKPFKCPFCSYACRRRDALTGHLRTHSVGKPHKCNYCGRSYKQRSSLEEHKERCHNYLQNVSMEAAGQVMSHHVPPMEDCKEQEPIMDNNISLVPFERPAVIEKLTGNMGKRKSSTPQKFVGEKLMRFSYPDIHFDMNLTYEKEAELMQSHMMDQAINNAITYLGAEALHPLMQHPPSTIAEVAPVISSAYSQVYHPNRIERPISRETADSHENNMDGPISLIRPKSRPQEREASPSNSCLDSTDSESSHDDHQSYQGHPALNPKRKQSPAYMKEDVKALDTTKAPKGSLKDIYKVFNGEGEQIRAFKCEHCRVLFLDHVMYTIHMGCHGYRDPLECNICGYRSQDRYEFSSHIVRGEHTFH
Sequence (Q96SW2 whole entry): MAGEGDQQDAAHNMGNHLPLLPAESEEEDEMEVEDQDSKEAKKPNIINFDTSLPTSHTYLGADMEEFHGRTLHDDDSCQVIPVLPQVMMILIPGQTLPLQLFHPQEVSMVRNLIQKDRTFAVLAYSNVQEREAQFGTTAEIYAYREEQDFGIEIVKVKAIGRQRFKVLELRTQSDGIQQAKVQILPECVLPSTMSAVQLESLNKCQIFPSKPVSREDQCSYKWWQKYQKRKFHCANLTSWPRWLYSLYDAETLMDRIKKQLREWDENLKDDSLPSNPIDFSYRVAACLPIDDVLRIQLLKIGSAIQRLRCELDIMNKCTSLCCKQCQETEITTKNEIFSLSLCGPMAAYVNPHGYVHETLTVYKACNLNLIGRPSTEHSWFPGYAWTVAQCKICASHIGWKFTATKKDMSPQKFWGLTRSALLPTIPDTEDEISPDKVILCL
Sequence (Q16531 whole entry partner): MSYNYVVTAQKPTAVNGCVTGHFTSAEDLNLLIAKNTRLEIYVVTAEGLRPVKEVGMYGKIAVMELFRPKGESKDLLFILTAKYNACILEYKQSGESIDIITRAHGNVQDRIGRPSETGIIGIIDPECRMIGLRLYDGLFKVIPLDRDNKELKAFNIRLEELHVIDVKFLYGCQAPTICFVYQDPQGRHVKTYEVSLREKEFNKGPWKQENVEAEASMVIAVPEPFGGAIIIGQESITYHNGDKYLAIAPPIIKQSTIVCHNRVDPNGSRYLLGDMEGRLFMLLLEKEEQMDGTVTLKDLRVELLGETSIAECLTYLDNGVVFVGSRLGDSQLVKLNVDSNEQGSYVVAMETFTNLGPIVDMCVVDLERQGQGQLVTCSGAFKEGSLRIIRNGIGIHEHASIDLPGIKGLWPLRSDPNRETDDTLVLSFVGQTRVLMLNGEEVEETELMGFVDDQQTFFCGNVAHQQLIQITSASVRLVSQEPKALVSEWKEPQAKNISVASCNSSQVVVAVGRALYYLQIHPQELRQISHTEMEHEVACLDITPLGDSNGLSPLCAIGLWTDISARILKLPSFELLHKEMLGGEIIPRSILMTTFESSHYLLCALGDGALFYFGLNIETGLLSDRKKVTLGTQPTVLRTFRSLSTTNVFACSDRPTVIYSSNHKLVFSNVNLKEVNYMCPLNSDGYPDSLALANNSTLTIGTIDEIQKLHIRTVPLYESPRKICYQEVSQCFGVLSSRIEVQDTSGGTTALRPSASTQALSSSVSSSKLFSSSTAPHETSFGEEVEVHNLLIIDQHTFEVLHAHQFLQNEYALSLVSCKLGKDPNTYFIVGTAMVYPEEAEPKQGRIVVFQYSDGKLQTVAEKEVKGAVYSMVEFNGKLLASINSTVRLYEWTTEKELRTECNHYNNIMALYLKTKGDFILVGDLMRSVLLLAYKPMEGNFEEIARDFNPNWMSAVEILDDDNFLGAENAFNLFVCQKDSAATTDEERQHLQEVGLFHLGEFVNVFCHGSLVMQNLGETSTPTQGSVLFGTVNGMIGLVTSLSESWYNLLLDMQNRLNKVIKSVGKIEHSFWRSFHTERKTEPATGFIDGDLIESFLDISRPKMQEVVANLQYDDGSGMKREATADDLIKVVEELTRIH
Test: HEK293 HiBiT in vitro degradation of IKZF2
Assay type: cell-based
Parameters: expressed in transfected cells
Conditions: HEK293, HEK293 HiBiT; maximum degradation at the highest concentration tested
observable: Dmax (%)

{"compound": "O=C1CCC(N2Cc3cc(O[C@H]4CCCC[C@@H]4NCc4ccccc4)ccc3C2=O)C(=O)N1 (some centres unmarked) [Example B-3]", "unit.tag": "%", "measured": 84}
{"compound": "N#Cc1ccc(CN[C@H]2CCCC[C@@H]2Cc2ccc3c(c2)CN(C2CCC(=O)NC2=O)C3=O)c(F)c1 (some centres unmarked) [Example 17]", "unit.tag": "%", "measured": 77}
{"compound": "CC1(C)CC(N[C@H]2CCCO[C@@H]2Cc2ccc3c(c2F)CN(C2CCC(=O)NC2=O)C3=O)CCO1 (some centres unmarked) [Example 222]", "unit.tag": "%", "measured": 96}
{"compound": "CC(CC1CC1)N[C@H]1CCCC[C@@H]1Cc1ccc2c(c1)CN(C1CCC(=O)NC1=O)C2=O (single isomer, unassigned) [Example 230]", "unit.tag": "%", "measured": 96}
{"compound": "O=C1CCC(N2Cc3c(ccc(C[C@H]4OCCC[C@@H]4NC4CCc5cn[nH]c5C4)c3F)C2=O)C(=O)N1 (some centres unmarked) [Example 374]", "unit.tag": "%", "measured": 98}

* * *

Molecular target: IKZF1 (Homo sapiens, UniProt Q13422+Q96SW2)
Construct: expressed in transfected cells
Sequence (Q13422 whole entry, one chain of several): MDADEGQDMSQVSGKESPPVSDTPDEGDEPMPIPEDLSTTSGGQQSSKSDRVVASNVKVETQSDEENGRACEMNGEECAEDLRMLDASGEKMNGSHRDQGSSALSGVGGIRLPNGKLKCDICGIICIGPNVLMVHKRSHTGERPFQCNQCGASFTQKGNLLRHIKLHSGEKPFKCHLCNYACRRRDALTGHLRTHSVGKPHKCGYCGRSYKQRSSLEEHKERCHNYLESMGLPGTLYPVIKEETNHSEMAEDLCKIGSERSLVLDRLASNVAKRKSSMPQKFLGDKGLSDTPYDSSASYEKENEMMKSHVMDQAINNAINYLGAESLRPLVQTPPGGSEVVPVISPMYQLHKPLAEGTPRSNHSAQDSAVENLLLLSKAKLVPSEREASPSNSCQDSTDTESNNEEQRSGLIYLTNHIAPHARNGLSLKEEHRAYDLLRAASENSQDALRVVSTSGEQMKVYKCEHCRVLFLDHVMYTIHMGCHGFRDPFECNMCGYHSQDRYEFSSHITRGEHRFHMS
Test: HEK293 HiBiT in vitro degradation of IKZF1
Type: cell-based
Details: HEK293 HiBiT, 18-24 hr incubation, normalized to DMSO control; read-out: IKZF1 EC50
As shown below, each of these compounds has a reported DC50 value.

Example results:
{"compound": "CC(N[C@H]1CCCC[C@@H]1Cc1ccc2c(c1)CN(C1CCC(=O)NC1=O)C2=O)C1CCCC1 (stereo partly drawn) [Example 201]", "observable": "DC50", "measured": "> 1000 nM"}
{"compound": "CC(CC(C)(C)C)N[C@H]1CCCC[C@@H]1Cc1ccc2c(c1)CN(C1CCC(=O)NC1=O)C2=O (stereo partly drawn) [Example 221]", "observable": "DC50", "measured": "> 1000 nM"}
{"compound": "O=C1CCC(N2Cc3cc(C[C@H]4CCCC[C@@H]4NCc4nccs4)ccc3C2=O)C(=O)N1 (stereo partly drawn)", "observable": "DC50", "measured": "> 1000 nM"}
{"compound": "CC(N[C@H]1CCCO[C@@H]1Cc1ccc2c(c1F)CN(C1CCC(=O)NC1=O)C2=O)C1CCC1 (single isomer, unassigned) [Example 248]", "observable": "DC50", "measured": "> 1000 nM"}
{"compound": "N#CC1CCC(N[C@H]2CCCC[C@@H]2Cc2ccc3c(c2)CN(C2CCC(=O)NC2=O)C3=O)CC1 (single isomer, unassigned) [Example 267]", "observable": "DC50", "measured": "109 nM"}

Okay, next one:
State its DC50 for this compound: CS(=O)(=O)c1ccc(CN[C@H]2CCCC[C@@H]2Cc2ccc3c(c2)CN(C2CCC(=O)NC2=O)C3=O)cc1 (stereo partly drawn)
> 1000 nM

* * *

Target: IKZF1 (Homo sapiens, UniProt Q13422+Q96SW2)
Construct: expressed in transfected cells
Assay: HEK293 HiBiT in vitro degradation of IKZF1
Type: cell-based
Conditions: HEK293, HEK293 HiBiT; maximum degradation at the highest concentration tested
observable: Dmax (%)

{"compound": "O=C1CCC(N2Cc3cc(C[C@H]4CCCC[C@@H]4NC4CCC(OC(F)(F)F)CC4)ccc3C2=O)C(=O)N1 (single isomer, unassigned)", "unit.tag": "%", "Dmax": 44}

[I] O=C1CCC(N2Cc3cc(C[C@H]4CCCC[C@@H]4NCc4ccccc4Cl)ccc3C2=O)C(=O)N1 (stereo partly drawn)
[II] O=C1CCC(N2Cc3cc(C[C@H]4CCCC[C@@H]4NC4CCC(c5ccccn5)CC4)ccc3C2=O)C(=O)N1 (stereo partly drawn)
// max by Dmax over [ I , II ] Kindly state the label of the option you pick.
II
(II: 62%, I: 38%)
